system: K86415-001-R-J1-PDC complex spheroids, viability; assay: Anticancer human tumor K86415-001-R-J1-PDC patient-derived lung adenocarcinoma cell line growth inhibition [RAS]; conditions: second compound 0.0949 µM; first compound 10 µM; stronger effect = lower value;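 also: spheroids exposed to agents for seven days before readout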
So basically: is viability, T/C under 4%? Then true. Not under? Then false.

{"compound": "CC1(O)CCCC1n1c(=O)c(C(F)F)cc2cnc(NC3CCN(S(C)(=O)=O)CC3)nc21 (configuration not stated) + CCn1c(-c2cc(N3CCN(C)CC3)cnc2C(C)OC)c2c3cc(ccc31)-c1csc(n1)CC(NC(=O)C1CC1C)C(=O)N1CCCC(N1)C(=O)OCC(C)(C)C2", "class-assignment": "false"}
{"compound": "CC(Nc1ccc2c(c1)OCCn1cc(N3C(=O)OCC3C(F)F)nc1-2)C(N)=O (configuration not stated) + CCn1c(-c2cc(N3CCN(C)CC3)cnc2C(C)OC)c2c3cc(ccc31)-c1csc(n1)CC(NC(=O)C1CC1C)C(=O)N1CCCC(N1)C(=O)OCC(C)(C)C2", "class-assignment": "true"}
{"compound": "NC1c2ccccc2OC12CCN(c1cnc3c(N4CCCc5ncccc54)n[nH]c3n1)CC2 (configuration not stated) + CCn1c(-c2cc(N3CCN(C)CC3)cnc2C(C)OC)c2c3cc(ccc31)-c1csc(n1)CC(NC(=O)C1CC1C)C(=O)N1CCCC(N1)C(=O)OCC(C)(C)C2", "class-assignment": "false"}
{"compound": "CCC(CC)c1cc(NC2CCC(N)C2)n2nccc2n1 (configuration not stated) + CCn1c(-c2cccnc2C(C)OC)c2c3cc(ccc31)N1CCOC(CC(NC(=O)C(C(C)C)N(C)C(=O)C3(F)CCN(C(=O)C#CC(C)(C)N(C)C)CC3)C(=O)N3CCCC(N3)C(=O)OCC(C)(C)C2)C1", "class-assignment": "true"}
{"compound": "C[C@@H](NC(=O)c1ncnc(N)c1Cl)c1ncc(C(=O)Nc2cc(C(F)(F)F)c(Cl)cn2)s1 + CCn1c(-c2cc(N3CCN(C)CC3)cnc2C(C)OC)c2c3cc(ccc31)-c1csc(n1)CC(NC(=O)C1CC1C)C(=O)N1CCCC(N1)C(=O)OCC(C)(C)C2", "class-assignment": "false"}
{"compound": "CC(Nc1ccc2c(c1)OCCn1cc(N3C(=O)OCC3C(F)F)nc1-2)C(N)=O (configuration not stated) + CCn1c(-c2cccnc2C(C)OC)c2c3cc(ccc31)N1CCOC(CC(NC(=O)C(C(C)C)N(C)C(=O)C3(F)CCN(C(=O)C#CC(C)(C)N(C)C)CC3)C(=O)N3CCCC(N3)C(=O)OCC(C)(C)C2)C1", "class-assignment": "true"}
{"compound": "CC(C)NCC(C(=O)N1CCN(c2ncnc3c2C(C)CC3O)CC1)c1ccc(Cl)cc1 (configuration not stated) + CCn1c(-c2cc(N3CCN(C)CC3)cnc2C(C)OC)c2c3cc(ccc31)-c1csc(n1)CC(NC(=O)C1CC1C)C(=O)N1CCCC(N1)C(=O)OCC(C)(C)C2", "class-assignment": "true"}
{"compound": "Cc1nc(N2CCC3(CC2)COC(C)C3N)c(CO)nc1Sc1ccnc(N)c1Cl (configuration not stated) + CCn1c(-c2cccnc2C(C)OC)c2c3cc(ccc31)N1CCOC(CC(NC(=O)C(C(C)C)N(C)C(=O)C3(F)CCN(C(=O)C#CC(C)(C)N(C)C)CC3)C(=O)N3CCCC(N3)C(=O)OCC(C)(C)C2)C1", "class-assignment": "true"}
{"compound": "CC(=O)OC12COC1CC(O)C1(C)C(=O)C(O)C3=C(C)C(OC(=O)C(O)C(NC(=O)OC(C)(C)C)c4ccccc4)CC(O)(C(OC(=O)c4ccccc4)C21)C3(C)C (configuration not stated) + CCn1c(-c2cccnc2C(C)OC)c2c3cc(ccc31)N1CCOC(CC(NC(=O)C(C(C)C)N(C)C(=O)C3(F)CCN(C(=O)C#CC(C)(C)N(C)C)CC3)C(=O)N3CCCC(N3)C(=O)OCC(C)(C)C2)C1", "class-assignment": "false"}
{"compound": "NC1c2ccccc2OC12CCN(c1cnc3c(N4CCCc5ncccc54)n[nH]c3n1)CC2 (configuration not stated) + CCn1c(-c2cccnc2C(C)OC)c2c3cc(ccc31)N1CCOC(CC(NC(=O)C(C(C)C)N(C)C(=O)C3(F)CCN(C(=O)C#CC(C)(C)N(C)C)CC3)C(=O)N3CCCC(N3)C(=O)OCC(C)(C)C2)C1", "class-assignment": "true"}
{"compound": "Cc1nc(N2CCC3(CC2)COC(C)C3N)c(CO)nc1Sc1ccnc(N)c1Cl (configuration not stated) + CCn1c(-c2cc(N3CCN(C)CC3)cnc2C(C)OC)c2c3cc(ccc31)-c1csc(n1)CC(NC(=O)C1CC1C)C(=O)N1CCCC(N1)C(=O)OCC(C)(C)C2", "class-assignment": "true"}
{"compound": "C[C@@H](NC(=O)c1ncnc(N)c1Cl)c1ncc(C(=O)Nc2cc(C(F)(F)F)c(Cl)cn2)s1 + CCn1c(-c2cccnc2C(C)OC)c2c3cc(ccc31)N1CCOC(CC(NC(=O)C(C(C)C)N(C)C(=O)C3(F)CCN(C(=O)C#CC(C)(C)N(C)C)CC3)C(=O)N3CCCC(N3)C(=O)OCC(C)(C)C2)C1", "class-assignment": "false"}

Numbers sourced from PubChem BioAssay AID2060893.
